Hey, just so you know, these numbers are from the supplement of paper PMC9170038.

Test system: MS2 coat protein
Assay comment: apparent KD of MS2 coat protein; designed switch direction (-1 OFF switch, 1 ON switch): 1; higher = weaker reporter binding
Condition parameters: Eterna round: R95; input ligand: none
If the reported apparent KD of MS2 coat protein equals or exceeds 80 nM, assign MET. If not, assign NOT MET.

Check the entry AACAAUCUAUUUGAGGAUAUCAUGAAAUAAACAUGAGGAUCACCCAUGUGCAGGAAAACUGCAUAUGAGAAGGCAGAUAGAUUGA [salish99_ss2_r3_025] (puzzle: Same State 2) : does apparent KD of MS2 coat protein equal or exceed 80 nM?
NOT MET

And for CGUCCGGCCUGUGCUGGCCGGUAGCUUGUACAUGAGGAUCACCCAUGUUCAUGUGCAGGCUUUUUGCUCGUCUUGUG [salish99_mir208a_014] (puzzle: Sensor for hsa-mir-208a) ?
NOT MET

One more sequence: AGAAAACAUGAGGAUCACCCAUGUAUAGUGAAUACAGGAUAUCACCAACGGAAUAGUCGGUGAGAAGGGUGAUCGC [Zaxelate] (puzzle: Same State 1)
NOT MET

Please answer likewise for CAGCACUAUCGAGAGGAUAUGCGGUGAUGGACAUGAGGAUCACCCAUGUUAGCGGUAGCAUCACGGCAGAAGGCUCUGCUGCUGC [Soteed Omei mod 39] (puzzle: Same State 2)
NOT MET

Please do the same for ACGUGGAUAUCACAGGAUAUACUCAUAACUACAUGAGGAUCACCCAUGUAGCGGUAUUCCGAUGCGUAGAAGGGUGAUGGACCAC [Same State 2 - Mod of Artece v.2] (puzzle: Same State 2) as well.
NOT MET

Now consider AGUCCAGCCAGAGCUGGACAAAAGCAUGUACAUGAGGAUCACCCAUGUCAUGUACAAGCUUUUUGCUCGUCUUAAAA [Mat - hsa-mir-208a - Mod of JL - D2] (puzzle: Sensor for hsa-mir-208a) and answer again.
MET

Moving on to the next sequence: CGCCGACAUGAGGAUCACCCAUGUGAGCGACUCACAGGAUAUACGCGAUAACAACUUCGCGUAGAAGGGUGCUCCU [Esvezaza] (puzzle: Same State 1)
NOT MET

Also GACAAUCUAUCUGAGGAUAUCAUGAGAAGAACAUGAGGAUCACCCAUGUGCAGGAAAACUGCAUAUGAGAAGGCAGAUAGAUUGA [Mat - Same State 2 - Mod - D16] (puzzle: Same State 2) , if possible.
MET

Follow-up entry: UCUUGGUUUUUGCUCGUUUUUUGUGUUGAACAUGAGGAUCACCCAUGUAUUGUACGGUCCGGUUUAGUGAUGAUCCA [JMF 76] (puzzle: Sensor for hsa-mir-208a)
MET

Entry to check: AGAGUGUAUCCACAGGAUAUGCGAGCUGACACAUGAGGAUCACCCAUGUAGUCCUAAAGGGCUGAGCAGAAGGGUGGUAAAGCUC [Raesvelave] (puzzle: Same State 2)
NOT MET

// same read-out, input: ACAGAGGGAAGACAGGAUAUUCGCGAUGGCACAUGAGGAUCACCCAUGUUUUGAGCACAUAAACAGAAGAAGGGUUAAAACUCAG [Veceanve] (puzzle: Same State 2)
MET

// next record UUAAAACAUGAGGAUCACCCAUGUAAUAAUAUGGGAGGAUAUCAGAAUGUAUGUAUGUAAUGAGAAGGCCUAAAUG [Mat - Same State 1 - Mod of Eli - D77] (puzzle: Same State 1)
MET
